Each entry below lists one item and its recorded EC50 value.
Target: EP3 (Homo sapiens, UniProt P43115)
Sequence (P43115 whole entry): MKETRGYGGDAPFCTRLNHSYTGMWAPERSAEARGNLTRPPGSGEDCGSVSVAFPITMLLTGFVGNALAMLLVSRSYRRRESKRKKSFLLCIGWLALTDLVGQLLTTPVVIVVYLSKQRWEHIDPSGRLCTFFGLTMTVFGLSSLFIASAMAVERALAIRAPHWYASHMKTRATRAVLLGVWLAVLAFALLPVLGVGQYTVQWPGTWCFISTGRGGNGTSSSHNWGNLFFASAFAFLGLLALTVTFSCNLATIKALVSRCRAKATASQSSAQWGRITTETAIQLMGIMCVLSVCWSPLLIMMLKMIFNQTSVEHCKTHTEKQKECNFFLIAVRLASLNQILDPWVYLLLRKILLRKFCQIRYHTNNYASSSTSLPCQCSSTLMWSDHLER
Test: Other receptors Ca2+ EC50: EP3
Type: cell-based
Conditions: NA not defined in the patent

{"molecule": "CCCCC[C@H](O)c1ccc(C2=C(Cl)CC[C@@H]2CCCc2ccc(C(=O)O)s2)cc1", "property.measured": "EC50", "measured": "1490 nM"}
{"molecule": "CCCCCC(O)c1ccc(C2=C(C)CC[C@@H]2CCCc2ccc(C(=O)O)s2)cc1 (some centres unmarked) [drawing 88]", "property.measured": "EC50", "measured": "7340 nM"}
{"molecule": "CCCCCC(O)c1ccc(C2=C(O)C(=O)C[C@@H]2C/C=C\\CCCC(=O)O)cc1 (some centres unmarked) [drawing 82]", "property.measured": "EC50", "measured": "9640 nM"}

Looking up CCCCCC(O)c1ccc(C2=C(C#N)CC[C@@H]2CCCc2ccc(C(=O)O)s2)cc1 (single isomer, unassigned) [drawing 84] , I see its EC50 listed as 3540 nM

Data point: CCCCCC(O)c1ccc(C2=C(Br)CC[C@@H]2CCCc2ccc(C(=O)O)s2)cc1 (some centres unmarked) [drawing 79] ; EC50 = 2340 nM

For this molecule ( CCCCCC(O)c1ccc(C2C(Br)=CC[C@@H]2CCCc2ccc(C(=O)O)s2)cc1 (some centres unmarked) [drawing 83] ), measured EC50 is 3220 nM

Reported EC50 of CCCCCC(O)c1ccc(C2=C(C#N)CC[C@@H]2CCCc2ccc(C(=O)O)s2)cc1 (some centres unmarked) : 8560 nM

CCCCC[C@@H](O)c1ccc(C2=CCC[C@@H]2CCCc2ccc(C(=O)O)s2)cc1 [drawing 87] yielded EC50 of 5890 nM
